Please provide measured pIC50 for the entries that follow.
molecular target: farnesyl protein transferase (Rattus norvegicus, UniProt Q02293+Q04631); construct: partially purified rat brain farnesyl protein transferase (FPT); experiment: FPT IC50 (inhibition of farnesyl protein transferase, in vitro enzyme assay; Ras-CVLS farnesylation by partially purified rat brain FPT)
Answers are plain numbers, as −log10 of the molar value.

Answered cases to consult:
N#CN=C(NCc1ccncc1)N1CCC(=C2c3ccc(Cl)c(Br)c3CCc3cc(Br)cnc32)CC1 ... 8.30
CS(=O)(=O)c1ccc(N/C(=N\C#N)N2CCC(=C3c4ccc(Cl)cc4CCc4cc(Br)cnc43)CC2)cc1 ... 7.06
CSC(=NC#N)N1CCC(=C2c3ccc(Cl)c(Br)c3CCc3cc(Br)cnc32)CC1 [Example 56] ... 7.38

Could you tell me pIC50 for each of these molecules? They are listed below.
1. N#CN=C(NCCOCCO)N1CCC(C2c3ccc(Cl)c(Br)c3CCc3cc(Br)cnc32)CC1 (stereo not shown)
2. N#CN=C(Nc1cc[n+]([O-])cc1)N1CCC(=C2c3ccc(Cl)cc3CCc3cc(Br)cnc32)CC1
3. N#CN=C(NCc1ccc(S(N)(=O)=O)cc1)N1CCC(=C2c3ccc(Cl)c(Br)c3CCc3cc(Br)cnc32)CC1
4. CCOC(=NC#N)N1CCC(=C2c3ccc(Cl)cc3CCc3cc(Br)cnc32)CC1
5. N#CN=C(NCC1CCNCC1)N1CCC(=C2c3ccc(Cl)c(Br)c3CCc3cc(Br)cnc32)CC1
6. N#CN=C(NC1CCN(Cc2ccccc2)CC1)N1CCC(=C2c3ccc(Cl)cc3CCc3cc(Br)cnc32)CC1

Out:
1: 8.43; 2: 7.89; 3: 7.82; 4: 7.27; 5: 8.33; 6: 6.77

Origin of values: patent US5925648A
